# measurement target: human recombinant GPR65 (Homo sapiens, UniProt Q8IYL9)
# Sequence (Q8IYL9 whole entry): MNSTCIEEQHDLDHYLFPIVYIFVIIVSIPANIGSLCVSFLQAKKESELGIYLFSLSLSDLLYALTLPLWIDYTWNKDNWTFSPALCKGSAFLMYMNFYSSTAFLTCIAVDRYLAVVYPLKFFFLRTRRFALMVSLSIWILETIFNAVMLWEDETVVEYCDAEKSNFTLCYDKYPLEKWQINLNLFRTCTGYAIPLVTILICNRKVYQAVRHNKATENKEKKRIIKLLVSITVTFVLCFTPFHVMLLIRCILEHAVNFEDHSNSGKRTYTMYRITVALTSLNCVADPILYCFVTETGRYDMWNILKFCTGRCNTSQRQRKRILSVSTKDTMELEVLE
# measurement description: Human GPR65 cAMP HTRF antagonist assay
# stated conditions: 1321N1-hrGPR65 cells stimulated at assay pH 7.2; suppression of cAMP rise; read-out: hGPR65 IC50
reported endpoint: IC50

> print(dat)
                           substance.smiles  recorded.result
1  O=C(Nc1ccc(C(F)(F)F)c(Cl)c1)N1CCc2cc[n+]([O-])cc2C1        > 5000 nM
2  Cc1cccc2c1CCN(C(=O)Nc1ccc(C(F)(F)F)c(Cl)c1)C2   500 to 5000 nM
3  O=C(Nc1ccc(Cl)c(Cl)c1)N1CCc2cc(Cl)ccc2C1         < 500 nM
4  O=C(Nc1ccc(C(F)(F)F)c(Cl)c1)N1CCc2cc(F)ncc2C1         < 500 nM
5  O=C(Nc1ccc(C(F)(F)F)c(Cl)c1)N1CCc2cc(Cl)ccc2C1         < 500 nM

---

# measurement target: human recombinant GPR65 (Homo sapiens)
# measurement description: Human GPR65 cAMP HTRF antagonist assay
# stated conditions: 1321N1-hrGPR65 cells stimulated at assay pH 7.2; suppression of cAMP rise; read-out: hGPR65 IC50
# Method: Human GPR65 Cyclic Adenosine Monophosphate (cAMP) Homogeneous Time Resolved Fluorescence (HTRF) Antagonist Assay Procedure IC50 data was obtained by the following procedure: […] Accumulation of cAMP was detected by cAMP HTRF kit (Cisbio). d2-labeled cAMP and cryptate-labeled anti-cAMP antibody in Lysis and Detection Buffer (Cisbio) were added to assay plates, and the plates were incubated at room temperature for 1 h. […]
reported endpoint: IC50

> print(dat)
                                   molecule  recorded.result
1  O=C(Nc1ccc(C(F)(F)F)c(Cl)c1)N1CCc2ccc(F)cc2C1 [Compound 33]         < 0.5 µM
2  O=C(Nc1ccc(Cl)c(Cl)c1)N1CCc2cc(F)c(F)cc2C1 [Compound 106]         < 0.5 µM
3  O=C(Nc1ccc(Cl)c(Cl)c1)N1CCc2cn3ccnc3cc2C1 [Compound 115]           > 5 µM
4  O=C(Nc1ccc(Cl)c(Cl)c1)N1CCc2cc(-c3ccsc3)ccc2C1 [Compound 128]           > 5 µM
5  Nc1cc2c(cn1)CCN(C(=O)Nc1ccc(C(F)(F)F)c(Cl)c1)C2 [Compound 83]         < 0.5 µM
6  O=C(Nc1ccc(Cl)c(Cl)c1)N1CCc2c[nH]c(=O)cc2C1 [Compound 99]           > 5 µM
7  N#Cc1ccc2c(c1)CN(C(=O)Nc1ccc(Cl)c(C(F)(F)F)c1)CC2 [Compound 50]      0.5 to 5 µM

---

# measurement target: human recombinant GPR65 (Homo sapiens, UniProt Q8IYL9)
# Construct: host or cells: 1321N1 human astrocytoma cells (1321N1-hrGPR65)
# measurement description: Human GPR65 cAMP HTRF antagonist assay
# Format: cell-based
# stated conditions: 1321N1-hrGPR65 cells stimulated at assay pH 7.2; suppression of cAMP rise; read-out: hGPR65 IC50
pIC50: −log10 of the molar value.
reported endpoint: pIC50

> print(dat)
                           substance.smiles  recorded.result
1  COc1cc2c(cn1)CCN(C(=O)Nc1ccc(C(F)(F)F)c(Cl)c1)C2           < 5.30
2  O=C(Nc1ccc(Cl)c(C(F)(F)F)c1)N1CCc2ncccc2C1           < 5.30
3  O=C(Nc1ccc(C(F)(F)F)c(Cl)c1)N1CCc2cc(F)ccc2C1           > 6.30
4  Cc1cccc2c1CN(C(=O)Nc1ccc(C(F)(F)F)c(Cl)c1)CC2     5.30 to 6.30
5  N#Cc1ccc2c(c1)CN(C(=O)Nc1ccc(C(F)(F)F)c(Cl)c1)CC2     5.30 to 6.30
